Recorded measurements of EC50, one per entry
assay: compound enhancement of TRAIL-induced cell killing – NB7 cells plus caspase-8, luminescence, panel, dose response (AID 652002); conditions: NB7 neuroblastoma +caspase-8, no TRAIL, compound-alone cytotoxicity counter-screen, luminescence viability; NB7+Caspase-8; run 2; single replicate panel EC50
valueType: EC50

[[record]]
compound = "CCN(CC)c1ccc(NC(=O)Nc2ccccc2)cc1"
valuetype = "EC50"
value = "10.9 µM"

[[record]]
compound = "O=C(NCC1CCCO1)c1ccc2c3n(nc2c1)-c1ccccc1CO3 (stereo unspecified)"
valuetype = "EC50"
value = "> 12.5 µM"

[[record]]
compound = "Cc1cc(N/N=C/c2ccccc2)nc(NCc2ccccc2)n1"
valuetype = "EC50"
value = "> 12.5 µM"

[[record]]
compound = "CC1(Cc2ccc(OC(F)(F)F)cc2)C(=O)Nc2ccc(S(=O)(=O)NC3CCCCC3)cc21 (stereo unspecified)"
valuetype = "EC50"
value = "12.3 µM"

[[record]]
compound = "O=C(NNC(=O)c1cc(OCC(F)(F)F)ccc1OCC(F)(F)F)c1ccc(Cl)c(Cl)c1"
valuetype = "EC50"
value = "> 12.5 µM"

[[record]]
compound = "CCOC(=O)c1cnc2c(-c3ccccc3)cnn2c1N"
valuetype = "EC50"
value = "> 12.5 µM"

[[record]]
compound = "c1ccc(Nc2nnc(-c3cccnc3)s2)cc1"
valuetype = "EC50"
value = "> 12.5 µM"

[[record]]
compound = "CC(C)C(=O)Nc1ccc(NC(=O)c2ccccn2)cn1"
valuetype = "EC50"
value = "11.6 µM"

[[record]]
compound = "CN(C)CCCN(C(=O)c1ccc(C(=O)c2ccccc2)cc1)c1nc2ccc(F)cc2s1"
valuetype = "EC50"
value = "> 12.5 µM"

[[record]]
compound = "COc1ccc2sc(-c3ccc(S(C)(=O)=O)cc3)c(C#Cc3cncn3C)c2c1"
valuetype = "EC50"
value = "> 12.5 µM"

[[record]]
compound = "COc1ccccc1C=NNC(=O)NN=Cc1ccccc1OC"
valuetype = "EC50"
value = "10.3 µM"

[[record]]
compound = "COc1cccc(C(=O)Nc2ccc(C3CC3(Cl)Cl)cc2)c1 (stereo unspecified)"
valuetype = "EC50"
value = "> 12.5 µM"

[[record]]
compound = "Cc1nc2cc(NC(=O)c3ccco3)ccc2n1C"
valuetype = "EC50"
value = "11.5 µM"

[[record]]
compound = "CCOC(=O)[C@]12Cc3cc4ccccc4cc3[C@H]1N(Cc1ccccc1)C(=O)c1cc(OC)ccc12"
valuetype = "EC50"
value = "> 12.5 µM"

[[record]]
compound = "c1ccc(-c2cnc(-c3ccccn3)nn2)cc1"
valuetype = "EC50"
value = "10 µM"

[[record]]
compound = "COc1ccc(-c2nc(-c3ccc(NC(=O)c4ccncc4)cc3)no2)cc1OC"
valuetype = "EC50"
value = "> 12.5 µM"

[[record]]
compound = "CCCCC1CCC(C(=O)N(CCC(C)C)c2c(N)n(CCCC)c(=O)[nH]c2=O)CC1 (stereo unspecified)"
valuetype = "EC50"
value = "> 12.5 µM"

[[record]]
compound = "O/C(=C\\c1ccc2ccccc2n1)c1ccc(O)cc1O"
valuetype = "EC50"
value = "> 12.5 µM"

[[record]]
compound = "O=C1CCCc2nc(N3CCc4ccccc43)ncc21"
valuetype = "EC50"
value = "> 12.5 µM"

[[record]]
compound = "Cc1cc2nc3ccc(N(C)C)cc3nc2cc1N"
valuetype = "EC50"
value = "> 12.5 µM"

[[record]]
compound = "CCCCCc1cc(=O)oc2c(C(CCN(CC)CC)c3cc(OC)c(OC)c(OC)c3)c(OC)cc(OC)c12 (stereo unspecified)"
valuetype = "EC50"
value = "> 12.5 µM"

[[record]]
compound = "COc1cccc(N/C=C/C(=O)c2ccc(Cl)cc2)c1"
valuetype = "EC50"
value = "10.3 µM"

[[record]]
compound = "NNC(=O)C1CCCn2c1nc1sc3c(c1c2=O)CCCC3 (stereo unspecified)"
valuetype = "EC50"
value = "> 12.5 µM"

[[record]]
compound = "COC(=O)[C@]12CCCCC=C1N(Cc1cccc3ccccc13)C(=O)[C@H](CC(=O)NCc1ccc(OC)c(OC)c1)C2"
valuetype = "EC50"
value = "10.2 µM"

[[record]]
compound = "CCOC(=O)[C@]12Cc3cc4ccccc4cc3[C@H]1N(Cc1ccccc1)C(=O)c1ccccc12"
valuetype = "EC50"
value = "> 12.5 µM"

[[record]]
compound = "O=C(Nc1ccc2c(c1)OCCO2)NC1CCCCC1"
valuetype = "EC50"
value = "> 12.5 µM"

[[record]]
compound = "O=C(Nc1ccc2c(c1)OCO2)c1ccc2c(c1)OCO2"
valuetype = "EC50"
value = "11.2 µM"

[[record]]
compound = "CCN(CC)c1ccc(/C=N/NC(=O)c2ccco2)cc1"
valuetype = "EC50"
value = "> 12.5 µM"

[[record]]
compound = "CCOc1ccc(NC(=O)Nc2cccs2)cc1"
valuetype = "EC50"
value = "6.47 µM"

[[record]]
compound = "O=C(Nc1ccc(Br)cc1F)c1ccc2c(c1)OCCO2"
valuetype = "EC50"
value = "11.2 µM"

[[record]]
compound = "Cc1ccc(-n2nnc(-c3cccnc3Cl)n2)cc1"
valuetype = "EC50"
value = "> 12.5 µM"

[[record]]
compound = "COCCNC(=O)c1cc(-c2ccc(-c3ccccc3)cc2)nc2ccccc12"
valuetype = "EC50"
value = "2.09 µM"

[[record]]
compound = "O=C(N/N=C/c1cccc(OC(=O)c2ccco2)c1)c1ccc(F)cc1"
valuetype = "EC50"
value = "7.04 µM"

[[record]]
compound = "O=C(NC(=O)c1ccccc1)Nc1ccccc1"
valuetype = "EC50"
value = "> 12.5 µM"

[[record]]
compound = "COc1ccc(OCC(=O)N/N=C/C=C/c2ccccc2)cc1"
valuetype = "EC50"
value = "> 12.5 µM"

[[record]]
compound = "Cc1nc(Cl)c2oc3ccccc3c2n1"
valuetype = "EC50"
value = "> 12.5 µM"

[[record]]
compound = "C#Cc1ccc(NC(=O)C2(C)CCN2C(=O)Cc2ccc(C(C)C)cc2)cc1 (stereo unspecified)"
valuetype = "EC50"
value = "8.26 µM"

[[record]]
compound = "CC(C)(C)OC(=O)[C@H](Cc1ccccc1)NC(=O)c1[nH]cnc1C(=O)Nc1ccccc1F"
valuetype = "EC50"
value = "> 12.5 µM"

[[record]]
compound = "O=C(N/N=C/c1ccc2cccnc2c1)c1ccco1"
valuetype = "EC50"
value = "12.1 µM"

[[record]]
compound = "CC(C)(C)OC(=O)NCc1ccc(NC(=O)c2nc[nH]c2C(=O)N[C@@H](Cc2ccccc2)C(=O)OCc2ccccc2)cc1"
valuetype = "EC50"
value = "> 12.5 µM"

[[record]]
compound = "Cc1ccn2cc(C(=O)Nc3ccc4c(c3)OCCO4)nc2c1"
valuetype = "EC50"
value = "8.4 µM"

[[record]]
compound = "CCOc1ccc(/C=C/C(=O)Nc2cccc(C(C)=O)c2)cc1"
valuetype = "EC50"
value = "> 12.5 µM"

[[record]]
compound = "Cc1cccc2nc(=S)n(C(=O)c3ccco3)n12"
valuetype = "EC50"
value = "> 12.5 µM"

[[record]]
compound = "CCOC(=O)c1ccc(N/C=C/C(=O)c2ccco2)cc1"
valuetype = "EC50"
value = "> 12.5 µM"

[[record]]
compound = "CCCC1(CCC)C(=O)NC(=NCc2ccccc2)NC1=O"
valuetype = "EC50"
value = "> 12.5 µM"

[[record]]
compound = "Cc1ccc2c(c1)-c1nc3ccccc3cc1C2=NC1CCCCC1"
valuetype = "EC50"
value = "> 12.5 µM"

